- system.under.test: Sodium-dependent serotonin transporter (Rattus norvegicus) (UniProt P31652)
- assay.info: Inhibition of SERT in rat brain membrane at 10 uM
- Assay type: cell membranes
measurement.label: inhibition (%)

Worked cases, inhibition given:
CCOc1ccccc1OC(c1cccc(I)c1)C1CNCCO1 (racemic)    44
Cc1ccccc1OC(c1ccc(I)s1)C1CNCCO1 (racemic)    31

a. Ic1ccccc1OC(c1ccccc1)C1CNCCO1 (racemic)
b. Cc1ccccc1OC(c1cccc(I)c1)C1CNCCO1 (racemic)
c. COc1ccccc1OC(c1cccc(I)c1)C1CNCCO1 (racemic)
Please list these compounds in decreasing order of inhibition. Note for the reader: the ranking is given by listing the labels in the order requested.
a, b, c
(a: 40%, b: 24%, c: 12%)

====

- system.under.test: Sodium-dependent serotonin transporter (Rattus norvegicus, UniProt P31652)
- Sequence (P31652 whole entry): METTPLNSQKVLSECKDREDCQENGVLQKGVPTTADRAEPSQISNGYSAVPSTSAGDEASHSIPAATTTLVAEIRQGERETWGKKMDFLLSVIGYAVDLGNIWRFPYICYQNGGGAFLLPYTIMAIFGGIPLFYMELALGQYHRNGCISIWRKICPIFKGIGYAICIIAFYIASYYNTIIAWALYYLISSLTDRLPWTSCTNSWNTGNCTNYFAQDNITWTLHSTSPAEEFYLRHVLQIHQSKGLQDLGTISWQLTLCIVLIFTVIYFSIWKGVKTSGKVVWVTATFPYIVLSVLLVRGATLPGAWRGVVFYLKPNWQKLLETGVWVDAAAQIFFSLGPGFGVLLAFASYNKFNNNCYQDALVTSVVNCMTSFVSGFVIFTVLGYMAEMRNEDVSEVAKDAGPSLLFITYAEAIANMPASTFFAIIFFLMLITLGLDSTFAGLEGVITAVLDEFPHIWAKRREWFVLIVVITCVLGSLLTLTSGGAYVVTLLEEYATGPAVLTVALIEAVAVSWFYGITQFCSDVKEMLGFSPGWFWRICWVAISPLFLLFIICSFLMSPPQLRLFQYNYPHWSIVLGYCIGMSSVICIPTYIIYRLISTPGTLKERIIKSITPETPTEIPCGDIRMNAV
measurement.label: Ki (nM)
The reply should be a number in nM, with the unit left off.

Entry COc1ccccc1COC(c1cccc(I)c1)C1CNCCO1 (racemic) : reported Ki = ?
351

====

Record set of Ki for target or system Sodium-dependent dopamine transporter (Rattus norvegicus, UniProt P23977).
measurement.label: Ki (nM)

Ic1ccccc1O[C@@H](c1ccccc1)[C@@H]1CNCCO1    228

A. Cc1ccccc1OC(c1cccc(I)c1)C1CNCCO1 (racemic)
B. FC(F)(F)c1ccccc1OC(c1cccc(I)c1)C1CNCCO1 (racemic)
C. COc1ccccc1OC(c1ccc(I)s1)C1CNCCO1 (racemic)
Please list these compounds in decreasing order of Ki. Note for the reader: the ranking is given by listing the labels in the order requested.
B, A, C

====

- assay.info: Lipophilicity, log D at pH 7.4
- Type: physicochemical
- condition.set: buffer
measurement.label: logD
Keep it simple and answer with nothing but the number.

Entry [125I]c1ccccc1O[C@@H](c1ccccc1)[C@@H]1CNCCO1 : reported logD = ?
2.6

Origin of the recorded values: ChEMBL document CHEMBL1138413
